# Method Description: chemical genetic growth profiling, strain panel (AID 1159580);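 further: tested at 20 µM; growth read once vehicle control cultures reached saturation at 30 °C; 1 = growth at the plate median or of vehicle wells; lower values mean less growth of the strain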
# Study Conditions: S. cerevisiae deletion strains, growth OD, locus YDR502C, strain sam2, hits give low values
The whole screen tested about 5,500 compounds, of which about 2,000 (36%) were called active. Roughly 18% stayed inconclusive and do not appear here. Some of the results follow.
Readout Label: normalized growth
Answer as a number with no unit attached.

Ask: Requested read-out: normalized growth. Entry: COc1ccc2c(c1C(C)C)CCC1C(C)(C)C(=O)CCC21C (stereo not given)
Reply: 0.982

Ask: Would you mind doing OCC(O)C(O)C(O)C(O)C(O)CO (stereo not given) as well?
Reply: 1.01

Ask: Would you mind doing CCCC(C)(COC(N)=O)COC(=O)NC(C)C (stereo not given) as well?
Reply: 0.984

Ask: Would you mind doing NC(=NCCC[C@H](N)C(=O)O)N[N+](=O)[O-] as well?
Reply: 1.01

Ask: Would you mind doing O=C(Cc1cccs1)NC1C(=O)N2C(C(=O)[O-])=C(C[n+]3ccccc3)CSC12 (stereo not given) as well?
Reply: 0.985

Ask: Would you mind doing COc1ccc(-c2oc3c(CC=C(C)C)c(O[C@@H]4O[C@H](CO)[C@@H](O)[C@H](O)[C@H]4O)cc(O)c3c(=O)c2O[C@@H]2O[C@@H](C)[C@H](O)[C@@H](O)[C@H]2O)cc1 as well?
Reply: 0.989

Ask: Would you mind doing COc1cc(OC)c2c(=O)c(OC)c(-c3ccc(OC)c(OC)c3)oc2c1 as well?
Reply: 1.01

Ask: Would you mind doing CCN(Cc1ccncc1)C(=O)C(CO)c1ccccc1 (stereo not given) as well?
Reply: 1.01

Ask: Would you mind doing COC(=O)C[C@H]1C(C)(C)C2(Cl)O[C@@]34CC2C(=O)[C@]1(C)C3CC[C@]1(C)C4=CC(=O)O[C@H]1c1ccoc1 (stereo not given in full) as well?
Reply: 0.996

Ask: Would you mind doing Cc1cc(OC(=O)c2c(C)cc(O)cc2O)cc(O)c1C(=O)O as well?
Reply: 0.979

Ask: Would you mind doing CCOCN(C(=O)CCl)c1c(C)cccc1CC as well?
Reply: 0.974

Ask: Would you mind doing O=c1c(O)c(-c2cc(O)c(O)c(O)c2)oc2cc(O)cc(O)c12 as well?
Reply: 1

Ask: Would you mind doing CCC(=O)c1c(O)cc(O)cc1O as well?
Reply: 0.979

Ask: Would you mind doing C[C@@H]1O[C@@H](OC[C@H]2OC(Oc3c(-c4ccc(OCCO)c(OCCO)c4)oc4cc(OCCO)cc(O)c4c3=O)[C@H](O)[C@@H](O)[C@@H]2O)[C@H](O)[C@H](O)[C@H]1O (stereo not given in full) as well?
Reply: 0.995

Ask: Would you mind doing CCN1C[C@]2(C)CC[C@H](OC)[C@]34C2[C@H](O)[C@]2(OCO[C@@]25C[C@H](OC)[C@H]2C[C@]3(O)C5[C@H]2O)C14 as well?
Reply: 0.998

###

# Method Description: chemical genetic growth profiling, strain panel (AID 1159580);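 further: tested at 20 µM; growth read once vehicle control cultures reached saturation at 30 °C; 1 = growth at the plate median or of vehicle wells; lower values mean less growth of the strain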
# Study Conditions: S. cerevisiae deletion strains, growth OD, locus YOR290C, strain snf2, hits give low values
Out of some 5,500 compounds screened, about 2,000 (36%) were called active. About 18% were inconclusive and are not listed. This is one part of the list.
Readout Label: normalized growth
Answer as a number with no unit attached.

Ask: Requested read-out: normalized growth. Entry: CCC(c1ccc(O)cc1)C(CC)c1ccc(O)cc1 (configuration not stated)
Reply: 0.953

Ask: Would you mind doing NC(N)=NC(=O)c1nc(Cl)c(N)nc1N as well?
Reply: 0.985

Ask: Would you mind doing C[C@]12CCC3c4ccc(O)cc4CCC3C1CC[C@@H]2O (some centres not stated) as well?
Reply: 0.906

Ask: Would you mind doing Oc1cc2c(cc1O)C1c3ccc(O)c(O)c3OCC1(O)C2 (configuration not stated) as well?
Reply: 0.997

Ask: Would you mind doing C[C@@H]1CC[C@@]2(NC1)O[C@H]1C[C@H]3C4CC=C5C[C@@H](O)CC[C@]5(C)C4CC[C@]3(C)C1[C@@H]2C (some centres not stated) as well?
Reply: 0.074

Ask: Would you mind doing O=c1ccc2cc(OC3OC(CO)C(O)C(O)C3O)c(O)cc2o1 (configuration not stated) as well?
Reply: 0.919

Ask: Would you mind doing C[C@@H]1CC[C@@]2(OC1)OC1CC3C4CC=C5C[C@@H](O)CC[C@]5(C)C4CC[C@]3(C)C1[C@@H]2C (some centres not stated) as well?
Reply: 0.949

Ask: Would you mind doing CCC(N)C(O)c1ccc(O)c(O)c1 (configuration not stated) as well?
Reply: 0.987

Ask: Would you mind doing COc1ccc(-c2cc(=O)c3c(O)cc(O[C@H]4O[C@H](CO[C@@H]5O[C@@H](C)[C@H](O)[C@@H](O)[C@H]5O)[C@@H](O)[C@H](O)[C@H]4O)cc3o2)cc1 as well?
Reply: 0.985

Ask: Would you mind doing CC(C)(C)NCC(O)c1cc(Cl)c(N)c(Cl)c1 (configuration not stated) as well?
Reply: 0.971

Ask: Would you mind doing CC(=O)[C@@]1(O)CCC2C3C[C@H](C)C4=CC(=O)C=CC4(C)[C@@]3(F)[C@@H](O)C[C@@]21C (some centres not stated) as well?
Reply: 0.944

Ask: Would you mind doing CCC1OC(=O)[C@H](C)C(=O)[C@H](C)[C@@H](OC2O[C@H](C)C[C@H](N(C)C)[C@H]2O)[C@](C)(OC)C2(CCCn3cnc(-c4cccnc4)c3)C[C@@H](C)C(=O)[C@H](C)[C@H]3N(C2)C(=O)O[C@]13C (some centres not stated) as well?
Reply: 0.963

Ask: Would you mind doing COc1ccc(Cl)cc1C(=O)NCCc1ccc(S(=O)(=O)NC(=O)NC2CCCCC2)cc1 as well?
Reply: 0.938

Ask: Would you mind doing COC1=CC(=O)C(C(=O)c2ccccc2)=CC1=O as well?
Reply: 0.965

Ask: Would you mind doing COc1cc(OC)c2c(=O)c(O)c(-c3ccc(OC)c(OC)c3)oc2c1 as well?
Reply: 0.817

Ask: Would you mind doing CC1CCC2(OC1)OC1CC3C4CC[C@H]5C[C@@H](O)CC[C@]5(C)C4CC(=O)[C@]3(C)C1C2C (some centres not stated) as well?
Reply: 1.03

Ask: Would you mind doing COc1cc(O)c2c(=O)c(O)c(-c3ccc(O)c(O)c3)oc2c1 as well?
Reply: 0.701

Ask: Would you mind doing C[N+](C)(C)CC(O)CC(=O)O (configuration not stated) as well?
Reply: 0.977

Ask: Would you mind doing CCCCCC(=O)Cc1cc(O)cc(O)c1C(=O)Oc1cc(CC(=O)CCCCC)c(C(=O)O)c(OC)c1 as well?
Reply: 0.925

Ask: Would you mind doing COC1=CC(=O)C(O)=C/C1=C\C=C\c1ccccc1 as well?
Reply: 0.0813

Ask: Would you mind doing C=C1CCC2(OC1)OC1CC3C4CC=C5CC(O)CC(O)C5(C)C4CCC3(C)C1C2C (configuration not stated) as well?
Reply: 0.887

Ask: Would you mind doing O=C1[O][Bi][O]c2ccccc21 as well?
Reply: 1.01

Ask: Would you mind doing CN[C@@H]1C(O)[C@@H](O[C@@H]2[C@@H](O)[C@H](O[C@H]3OC(CN)=CC[C@H]3N)[C@@H](N)C[C@H]2N)OC[C@]1(C)O (some centres not stated) as well?
Reply: 0.979

Ask: Would you mind doing NC(=O)CN1CCCC1=O as well?
Reply: 0.99

Ask: Would you mind doing CC1CC[C@]2(NC1)O[C@H]1CC3C4CC[C@H]5C[C@@H](O)CC[C@]5(C)C4CC[C@]3(C)[C@H]1[C@@H]2C (some centres not stated) as well?
Reply: 0.108

Ask: Would you mind doing CC(=O)OCC1=C(C(=O)O)N2C(=O)[C@@H](NC(=O)Cc3cccs3)[C@H]2SC1 as well?
Reply: 0.992

Ask: Would you mind doing CCCCCCCCCCCC1=C(O)C(=O)C=C(O)C1=O as well?
Reply: 0.471

Ask: Would you mind doing CC/C(=C(/CC)c1ccc(O)cc1)c1ccc(O)cc1 as well?
Reply: 0.961

Ask: Would you mind doing CC(C)c1c(O)ccc2c1CCC1[C@@](C)(C=O)CCC[C@]21C (some centres not stated) as well?
Reply: 0.909

Ask: Would you mind doing Cc1cc(C2CCCCC2)n(O)c(=O)c1 as well?
Reply: 0.0737

Ask: Would you mind doing C=C(C)[C@H]1COc2cc3oc(=O)ccc3cc2O1 as well?
Reply: 0.888

Ask: Would you mind doing COC(=O)[C@@]1(C)CCC[C@]2(C)c3ccc(O)c(C(C)C)c3CCC12 (some centres not stated) as well?
Reply: 0.776
